Provenance of the data: ChEMBL document CHEMBL5506069

Test system: Candida parapsilosis
protocol-summary: Antifungal activity against Candida parapsilosis ATCC 22019 assessed as inhibition of fungal growth incubated for 24 hrs by CLSI based microbroth dilution method
Format: functional
stated-conditions: Lodderomyces parapsilosis
Decision: MIC beneath 200 µM gives rule met; MIC meeting or exceeding 200 µM gives rule not met.

# input For CCCCc1nc(Cl)c(/C=N/Nc2ccc3c4c(cccc24)C(=O)N(CCO)C3=O)n1CCO , is the recorded MIC below the cut-off of 200 µM?
# output rule met

# input For O=C1c2cccc3c(N/N=C/c4cc[nH]c4)ccc(c23)C(=O)N1CCO , is the recorded MIC below the cut-off of 200 µM?
# output rule met

# input For O=C1c2cccc3c(N/N=C/c4ccc[n+](Cc5ccc([N+](=O)[O-])cc5)c4)ccc(c23)C(=O)N1CCO , is the recorded MIC below the cut-off of 200 µM?
# output rule met

# input For O=C1c2cccc3c(N/N=C/c4ccc([N+](=O)[O-])o4)ccc(c23)C(=O)N1CCO , is the recorded MIC below the cut-off of 200 µM?
# output rule met

# input For COc1ccc(N2C(=O)c3cccc4c(N/N=C(\C)Cn5c([N+](=O)[O-])cnc5C)ccc(c34)C2=O)cc1 , is the recorded MIC below the cut-off of 200 µM?
# output rule not met

# input For O=C1c2cccc3c(N/N=C/c4ccncc4)ccc(c23)C(=O)N1CCO , is the recorded MIC below the cut-off of 200 µM?
# output rule not met

# input For O=C1c2cccc3c(N/N=C/c4ccccn4)ccc(c23)C(=O)N1CCO , is the recorded MIC below the cut-off of 200 µM?
# output rule not met

# input For CCCCc1nc(Cl)c(/C=N/Nc2ccc3c4c(cccc24)C(=O)N(CCO)C3=O)n1CC(=O)OCC , is the recorded MIC below the cut-off of 200 µM?
# output rule not met

# input For C[n+]1ccccc1/C=N/Nc1ccc2c3c(cccc13)C(=O)N(CCO)C2=O , is the recorded MIC below the cut-off of 200 µM?
# output rule met

====

System: Candida tropicalis
protocol-summary: Antifungal activity against Candida tropicalis assessed as inhibition of fungal growth incubated for 24 hrs by CLSI based microbroth dilution method
Type: functional
readout-kind: log10(MIC) (log10 of the value in µM)
Each number you see is log10 of MIC, and the unit inside the log is µM.

# input Look up and state reported log10(MIC) for O=C1c2cccc3c(N/N=C/c4cncs4)ccc(c23)C(=O)N1CCO
# output 1.94

# input Look up and state reported log10(MIC) for C[n+]1ccccc1/C=N/Nc1ccc2c3c(cccc13)C(=O)N(CCO)C2=O
# output 1.51

# input Look up and state reported log10(MIC) for O=C1c2cccc3c(N/N=C/c4c[nH]cn4)ccc(c23)C(=O)N1CCO
# output 1.66

# input Look up and state reported log10(MIC) for CCCCc1nc(Cl)c(/C=N/Nc2ccc3c4c(cccc24)C(=O)N(CCO)C3=O)n1Cc1ccccc1Cl
# output 1.76

# input Look up and state reported log10(MIC) for CCCCc1nc(Cl)c(/C=N/Nc2ccc3c4c(cccc24)C(=O)N(CCO)C3=O)n1Cc1cccc(Cl)c1
# output 1.45

# input Look up and state reported log10(MIC) for CCCCc1nc(Cl)c(/C=N/Nc2ccc3c4c(cccc24)C(=O)N(CCO)C3=O)n1Cc1cccc(F)c1
# output 1.76

# input Look up and state reported log10(MIC) for CCCCc1nc(Cl)c(/C=N/Nc2ccc3c4c(cccc24)C(=O)N(CCO)C3=O)n1Cc1ccc([N+](=O)[O-])cc1
# output 1.45

# input Look up and state reported log10(MIC) for CCCCc1nc(Cl)c(/C=N/Nc2ccc3c4c(cccc24)C(=O)N(CCO)C3=O)n1CC
# output 1.53

# input Look up and state reported log10(MIC) for Cc1ccc(/C=N/Nc2ccc3c4c(cccc24)C(=O)N(CCO)C3=O)o1
# output 1.92

# input Look up and state reported log10(MIC) for C/C(Cn1c([N+](=O)[O-])cnc1C)=N\Nc1ccc2c3c(cccc13)C(=O)N(Cc1ccc(F)cc1)C2=O
# output 3.01
